Cited source: the supplement of paper PMC9170038

system: MS2 coat protein; assay: apparent KD of MS2 coat protein; designed switch direction (-1 OFF switch, 1 ON switch): -1; higher = weaker reporter binding; details: Eterna round: R95; input ligand: none
Consider the following sequences; for each one, report its apparent KD of MS2 coat protein.
Please make sure the unit comes right after the number.

What is its apparent KD of MS2 coat protein for MS2 coat protein? Entry: AGUAACUAUCACGAAAGUGAUAGUUACAACAAGUGAUAAACAUGAGGAUCACCCAUGUCCUCAUUUGCUCGUCUUAU [Sensor 3 - 9] (puzzle: Sensor v3, turn-off variant 2)
326 nM

Request - read-out apparent KD of MS2 coat protein | tested on MS2 coat protein | sequence UAUUACAAGCGAGAUCCUAACAUGAGGAUCACCCAUGUGCUCGUCUCAUAUAGGACUAUCACGAAAGUGAUAGUCCA [Level Boss var2-01] (puzzle: Sensor v3, turn-off variant 1)
15.2 nM

Please state recorded apparent KD of MS2 coat protein (tested on MS2 coat protein) of GCUUUUCUUUUCCUUUCUUACAUGAGGAUCACCCAUGUUUCUUGUCGUGCUCGCGUUGCUCGUCUGUCUGUCUGUUG [salish99_TOv1_r3_077(!)] (puzzle: Sensor v3, turn-off variant 1)
50.8 nM

Could you share what apparent KD of MS2 coat protein was measured for GUAUAACUACACGGGCUCAACAUGAGGAUCACCCAUGUCUUAUACGCAAGCUUUUUGCUUGUCUUAUCUGUCCGUGA [Tibimaesan] (puzzle: Sensor v3, turn-off variant 1) , tested on MS2 coat protein?
12.3 nM

For MS2 coat protein, provide apparent KD of MS2 coat protein of GAGAAAGCAAGCAAGUGAAACAUGAGGAUCACCCAUGUCCUCAUUUGCUCGUCUUAUAAAAGCUAUCGAAAGAUAGC [Mat - Sensor v3 - turn-off var 1 - Eli Mod - D48] (puzzle: Sensor v3, turn-off variant 1) please.
10.3 nM

Entry CUGAGCAGACGGAGAUCCAACAUGAGGAUCACCCAUGUCUCAUAAGCUUUUUGCUUGUCUUAUCCUCCUCUGUUCUC [Mariedxeor] (puzzle: Sensor v3, turn-off variant 1) , system MS2 coat protein: what apparent KD of MS2 coat protein was measured?
14.4 nM

Recall the recorded apparent KD of MS2 coat protein for GAUUAUGCGAGCUUUAGGGACAUGAGGAUCACCCAUGUUCGUCUUAUUGGUCUGAAUGCACUAACAUACCUAAAUCU [JMF 24] (puzzle: Sensor v3, turn-off variant 1) with MS2 coat protein and state it.
24.8 nM

What reported apparent KD of MS2 coat protein corresponds to AGGGCUGCUCAGGAUAUCCGUAAAAGCCGAAAAGGAGAAGGGAGCACAUGAGGAUCACCCAUGUGAUCCUAAAA [Orbemaored] (puzzle: Exclusion 6) on MS2 coat protein?
15.5 nM

For the record AGUACUAACACGAGAGUGUUAGUACUAUAAGCUUGUGUUACAUGAGGAUCACCCAUGUCCUCAUAAGCUCGUCUUAU [Mat - Sensor v3 - Turn-off var 2 - D79] (puzzle: Sensor v3, turn-off variant 2) , what value of apparent KD of MS2 coat protein is listed for MS2 coat protein?
116 nM

Attention now shifts to the item below.
Report apparent KD of MS2 coat protein for GGUUGACAUGAGGAUCACCCAUGUGAGGAUAUGCGAGAGAAAAAAGUGAGGAAGAAGAGCAGAAGGCGCUGUCG [salish99-ex1_r3_012] (puzzle: Exclusion 1) tested on MS2 coat protein.
117 nM

---

test system: K4 kissing-loop RNA reporter; test: apparent KD of K4 kissing-loop reporter; higher = weaker reporter binding; conditions: Eterna round: R107; input ligand: theophylline 20 uM
Quick rule: apparent KD of K4 kissing-loop reporter of at least 300 nM means 1.0, below that means 0.0.

Could you tell me if the measured apparent KD of K4 kissing-loop reporter of UAUUGAUUGUCAGGAUAUCGUAAACGAGUGAUGUUCGUAAAUCGACGAUAGUCGAUAUGAUCUGAACGAGAAGGGACAUUAUUUA [JR_SSFMNB_Sub010] reaches 300 nM or more?
1.0

Decide: is the reported value of apparent KD of K4 kissing-loop reporter for AUACAGCGACGCGCUAGUGAUGUUAGCGAAGGAGCGACUCAUGAGUCAGGUAGGUCGCGCUAACGUGGUUACGAGAGUAACCAGU [Arg A Ex t1a] equal to or greater than 300 nM?
0.0

Decide: apparent KD of K4 kissing-loop reporter of CGUUUAUAGCAGGAUACCAGUACCCAUUAUGUACGUUAAUAGUAGAGUGAUGUUCUAAAGUACCCUUGGCAGCUUCCCGUGACCC [ExTheophylB.Y] >= 300 nM?
0.0

Could you verify whether the entry CUAUAGACCCUUCGGAUAGUGAUGUUGUCACGAGGACCGGUACGGCCGCCACUCGCUGCCACCAUACCGCUUCACGGAACGAGCA [theeternabot_exclusion_KL_Trp_A_7] shows apparent KD of K4 kissing-loop reporter of no less than 300 nM?
1.0

More entries:
Does apparent KD of K4 kissing-loop reporter meet or surpass 300 nM for UGAUAGGACAGAAGGAGCGGGAGUGAUGUUCCCAAUAGGAGGUCUAGCAAAGCUGGACCCUCCCAGGUAGGUCGCUGUCCUAUCU [ArgBX 3 #SwitchBubble #StaticStem] ?
0.0

---

test system: K4 kissing-loop RNA reporter; test: apparent KD of K4 kissing-loop reporter; higher = weaker reporter binding; conditions: Eterna round: R107; input ligand: tryptophan 2.4 mM
MEASURED_PARAMETER: apparent KD of K4 kissing-loop reporter (nM)
Give bare numbers, in nM.

Looking for the measured apparent KD of K4 kissing-loop reporter of UAUCGAGUGAUGUUCGAUGUAGUGCAUUCAGAGGAUAUAGGAUGGGCUAGAAGGCUGAAAAGUGCUUCGAGUGAUGUUCGAAGAU [Exclusion FMN A GF 5] , can you help?
65.3

Return reported apparent KD of K4 kissing-loop reporter; argument: AAAGUGUCAGCACGAGUGAUGUUCGUGGAUACCAGCCUCGAUAAAGGCCCUUGGCAGCCGAAAAGUCAAGGGCUGGCACAUAAAA [KL-XTheo-A11]
226

# apparent KD of K4 kissing-loop reporter lookup, item AGGAGCGUGCGAUGGAAAUCGCACGCUCCUCGAGGACCGGUACGGCCGCCACUCGCUCGCGCCGAGUGAUGUUCGGCCGGCGAAG [#2 Same State - Tryptophan A Attempt #16 (HarryS)]
82.8

Would you mind telling me what apparent KD of K4 kissing-loop reporter value was observed for GGUAGCAUGGCGGCCGCCACUGUCUACUGAGGCGGAGUGAUGUUCCGGUUUAAAUAACAAGUUCACAGGACCGGGCCAUGCUACC ?
141

What measured apparent KD of K4 kissing-loop reporter goes with CCAGAAUGAUGAAGAUGAUAAAUUACUGAAGGAGCGCAUAUAGUUGCAGGUAGGUCGCGGUGAAUAAGUAUAGUGAUGUUAUACC [SSArgA.Ac] ?
204

Now let's try a different one.
What does the data say about its apparent KD of K4 kissing-loop reporter? Entry: GUCAAGGGUGCGGCCGCCACUUCUAGUGAUGUUAGUUUGUCUUCGUUCAACCGGCGUCUGCACGCAAGGACCGGGCACCAGCGAC [theeternabot_exclusion_KL_Trp_B_10]
360

---

tested on: K4 kissing-loop RNA reporter; experiment: apparent KD of K4 kissing-loop reporter; higher = weaker reporter binding; conditions: Eterna round: R107; input ligand: none;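 further: bound reporter read as fluorescence of individual clusters on recovered sequencing chips by microscopy, with normalized cluster intensities fitted with a binding model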
Class True: apparent KD of K4 kissing-loop reporter at least 200 nM. Class False: apparent KD of K4 kissing-loop reporter below 200 nM.

Can UUUCUAUCGGGAAGGAGCGUGAAUGAUAAUGGAUAUAGUGAUGUUAUAUAUAAGAACGAAUCGCAGGUAGGUCGCCCGGAUGACU [SSArgB.R] be said to have apparent KD of K4 kissing-loop reporter at or above 200 nM?
True

API: above_or_equal(metric=apparent KD of K4 kissing-loop reporter, cutoff=200 nM) for item GCGCGUCAUGUCAGCGGUGACACUGUCGAUACCAGCGCCGAAAGGCGCCCUUGGCAGCGACGUGCUGGAGUGAUGUUCCAGCGUG [#2 Exclusion - Theophylline A Attempt #25 (HarryS)]
False

Could you verify whether the entry UUAGAUCAAAGAUCAGUCUUAUGGAGGGAACGAGGACCGGUACGGCCGCCACUCGAGUGAUGUUCGAGAACCCUCGUGACAAAUU [AK4 EXC Tryptophan A] shows apparent KD of K4 kissing-loop reporter of no less than 200 nM?
False

Has AGGUCUGCACGAAGGAGCGCCCUGACAGGUUGCUGCCGUGGGCAGUGAUGUUGCUCAGUCCGGCAGGUAGGUCGCGUGCAGACCU a recorded apparent KD of K4 kissing-loop reporter greater than or equal to 200 nM?
False

Reported apparent KD of K4 kissing-loop reporter at or above 200 nM? GUGAGGAUCAGAAGGAGCGUCGGCAAUCCAGUGAUGUUGGGUGUUGGUUAUAUUUAACGACGACAGGUAGGUCGCUGAUUUUCAA [Same State Arginie B GF 21]
False

***
Is reported apparent KD of K4 kissing-loop reporter greater than or equal to 200 nM here: UAGGCCGCAUACAUUAGAUAAGGUACCGAUACCAGCCUCGCACCAGGCCCUUGGCAGCGGCAUCAAAUGGGUAGUGAUGUUACCU [theeternabot_exclusion_KL_Theo_A_20]
False

Determine whether measured apparent KD of K4 kissing-loop reporter meets or exceeds 200 nM for UGACUGGAUUGAAGGAGCGCUAAACUCCUAGUGAUGUUAGGGACACGAGACAAAGUCUCGAGGCAGGUAGGUCGCAAUCUAGUCU [FiskerMod 6 - Jieux - Same State - Arginine B]
True
